Source of measurements: patent US20120283217A1

# maps each entry to its melting point

Sample answers from the record:
• CC(=O)O[C@H]1CC[C@]23C[C@]24CC[C@]2(C)[C@@H]([C@H](C)CC(=O)O)CC[C@@]2(C)C4CCC3C1(C)C (stereo in doubt) = 222 to 224 °C
• C=C[C@@H](C)[C@H]1C(=O)CC2C3CC=C4C[C@@H](O)CC[C@]4(C)C3CC[C@@]21C (stereo partly shown) = 125 to 127 °C
• CC(=O)O[C@H]1CC[C@]23C[C@]24CC[C@]2(C)[C@@H]([C@H](C)CCC(O)C(C)C)CC[C@@]2(C)[C@@H]4CC[C@H]3C1(C)C (stereo partly shown) = 126 to 128 °C

With those in mind, consider the next compound.
IN: Given the compound CC(=O)O[C@H]1CC[C@]23C[C@]24CC[C@]2(C)[C@@H]([C@H](C)CC(=O)C(F)(F)F)CC[C@@]2(C)C4CCC3C1(C)C (stereo in doubt) , what is its reported melting point?
OUT: 170 to 173 °C

====

# maps each entry to its melting point

IN: Given the compound CC(=O)O[C@H]1CC[C@]23C[C@]24CC[C@]2(C)[C@@H]([C@H](C)CCC5(C(C)C)CO5)CC[C@@]2(C)[C@@H]4CC[C@H]3C1(C)C (stereo partly drawn) , what is its reported melting point?
OUT: 129 to 131 °C

====

measurement-type: melting point

- C/C=C1/C(O)CC2C3CC=C4C[C@@H](O[Si](C)(C)C(C)(C)C)CC[C@]4(C)C3CC[C@]12C (stereo in doubt) [Compound I-7]: 137 to 139 °C

IN: Given the compound CC(=O)O[C@H]1CC[C@]23C[C@]24CC[C@]2(C)[C@@H]([C@H](C)CCC(=O)O)CC[C@@]2(C)C4CCC3C1(C)C (stereo in doubt) [Compound I-4] , what is its reported melting point?
OUT: 201 to 212 °C

IN: Repeat with COC(=O)C(=O)C[C@@H](C)[C@H]1CC[C@@]2(C)C3CCC4C(C)(C)[C@@H](OC(C)=O)CC[C@]4(C)C3CC[C@]12C (stereo partly drawn)
OUT: 125 to 127 °C

IN: Repeat with CC(C)(C)[Si](C)(C)O[C@H]1CC[C@@]2(C)C(=CC[C@@H]3[C@@H]2CC[C@]2(C)C(=O)CC[C@@H]32)C1 [Compound I-13]
OUT: 150 to 152 °C

IN: Repeat with `CC(=O)O[C@H]1CC[C@]23C[C@]24CC[C@]2(C)[C@@H]([C@H](C)CCC(=O)C(F)(F)F)CC[C@@]2(C)[C@@H]4CC[C@H]3C1(C)C`
OUT: 133 to 135 °C

IN: Repeat with CC(=O)O[C@H]1CC[C@]23C[C@]24CC[C@]2(C)[C@@H]([C@H](C)CC(=O)C(C#N)=P(c5ccccc5)(c5ccccc5)c5ccccc5)CC[C@@]2(C)C4CCC3C1(C)C (stereo in doubt) [Compound I-19]
OUT: 203 to 205 °C

IN: Repeat with `C=C[C@@H](C)[C@H]1[C@H](O)C[C@H]2[C@@H]3CC=C4C[C@@H](O[Si](C)(C)C(C)(C)C)CC[C@]4(C)[C@H]3CC[C@]12C`
OUT: 156 to 158 °C

IN: Repeat with C/C=C1/C(=O)C[C@H]2[C@@H]3CC=C4C[C@@H](O[Si](C)(C)C(C)(C)C)CC[C@]4(C)[C@H]3CC[C@]12C [Compound I-8]
OUT: 161 to 163 °C

IN: Repeat with CC(=O)O[C@H]1CC[C@]23C[C@]24CC[C@]2(C)[C@@H]([C@H](C)CCC5OC5(C)C)CC[C@@]2(C)[C@@H]4CC[C@H]3C1(C)C (stereo partly drawn)
OUT: 141 to 143 °C

IN: Repeat with `C[C@H](C#N)[C@H]1C(=O)C[C@H]2[C@@H]3CC=C4C[C@@H](O)CC[C@]4(C)[C@H]3CC[C@]12C`
OUT: 124 to 126 °C

IN: Repeat with CC(=O)O[C@H]1CC[C@]23C[C@]24CC[C@]2(C)[C@@H]([C@H](C)CCC(=O)C(C)C)CC[C@@]2(C)C4CCC3C1(C)C (stereo partly drawn) [Compound I-3, 24-Oxocycloartanol-3-β-O-acetate]
OUT: 119 to 121 °C

IN: Repeat with `C/C=C1\C(=O)C[C@H]2[C@@H]3CC=C4C[C@@H](O)CC[C@]4(C)[C@H]3CC[C@]12C`
OUT: 112 to 113 °C

IN: Repeat with CC(C#N)[C@H]1[C@@H](O)CC2C3CC=C4C[C@@H](O[Si](C)(C)C(C)(C)C)CC[C@]4(C)C3CC[C@@]21C (stereo in doubt) [Compound I-10]
OUT: 290 to 292 °C

IN: Repeat with `C=C[C@@H](C)[C@H]1C(=O)C[C@H]2[C@@H]3CC[C@H]4C[C@@H](O[Si](C)(C)C(C)(C)C)CC[C@]4(C)[C@H]3CC[C@]12C`
OUT: 132 to 134 °C
